Recorded values, source paper PMC12155096.

These records show CYP3A4 AC50 (half-maximal activity concentration) for CYP3A4 (Homo sapiens, UniProt P08684).

Recorded results for 6 compounds are shown here.
compound="Nc1c(Br)cc([N+](=O)[O-])cc1Br [2,6-Dibromo-4-nitroaniline]" reported=Inactive
compound="C[C@H](CSC(=O)c1ccccc1)C(=O)N1C[C@@H](Sc2ccccc2)C[C@H]1C(=O)O [Zofenopril]" reported=Inactive
compound="O=[N+]([O-])c1ccc(O)cc1C(F)(F)F [3-Trifluoromethyl-4-nitrophenol]" reported="Inconclusive inhibitor"
compound="C[C@]12CC[C@@H]3c4ccc(O)cc4CC[C@H]3[C@@H]1C[C@@H](O)[C@@H]2O [Estriol]" reported=Inactive
compound="CC(=O)c1ccc(O)cc1 [4-Hydroxyacetophenone]" reported=Inactive
compound="COc1cccc(O)c1 [3-Methoxyphenol]" reported=Inactive

Query: Please report the recorded CYP3A4 AC50 (half-maximal activity concentration) for COC(=O)c1cc(S(N)(=O)=O)ccc1OC [Methyl 5-sulfamoyl-o-anisate] .
Result: Inactive

Query: Input N=C(N)N/N=C/c1c(Cl)cccc1Cl [Guanabenz]
Result: Inactive

Query: Input O=C(c1ccccc1)c1ccc(O)cc1 [4-Hydroxybenzophenone]
Result: Inactive

Query: Input Cc1cc2c(cc1S(N)(=O)=O)S(=O)(=O)CCC2 [Meticrane]
Result: Inactive

###

For each record, write down the corresponding AC50.
molecular target: CYP3A4 (Homo sapiens, UniProt P08684); experiment: biochemical; conditions: CYP3A4 AC50 (half-maximal activity concentration)
Sequence (P08684 whole entry): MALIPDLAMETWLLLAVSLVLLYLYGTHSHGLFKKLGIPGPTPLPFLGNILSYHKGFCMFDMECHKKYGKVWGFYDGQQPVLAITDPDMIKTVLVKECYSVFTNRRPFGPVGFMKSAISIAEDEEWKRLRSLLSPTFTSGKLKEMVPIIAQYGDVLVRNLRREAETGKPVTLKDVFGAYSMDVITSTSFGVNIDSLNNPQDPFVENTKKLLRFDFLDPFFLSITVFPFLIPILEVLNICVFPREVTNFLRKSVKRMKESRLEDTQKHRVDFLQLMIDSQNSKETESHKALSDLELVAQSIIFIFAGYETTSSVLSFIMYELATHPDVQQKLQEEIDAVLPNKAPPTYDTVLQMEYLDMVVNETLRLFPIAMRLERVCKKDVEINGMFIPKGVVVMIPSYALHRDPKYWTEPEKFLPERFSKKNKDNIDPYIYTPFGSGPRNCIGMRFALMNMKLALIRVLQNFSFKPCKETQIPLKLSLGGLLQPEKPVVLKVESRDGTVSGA
Field format: number, assumed µM, no unit text.

Query: Tell me reported AC50 for CCOC(=O)[C@@H](C)Oc1ccc(Oc2nc3ccc(Cl)cc3o2)cc1 , tested with CYP3A4 (Homo sapiens, UniProt P08684).
Result: 47.6

Query: Input COC(=O)C(C)N(C(=O)c1ccco1)c1c(C)cccc1C (stereo not drawn)
Result: 14.7

Query: Input O=C1NC2CCCCN2C12CCN(CCCN1c3ccccc3CCc3ccc(Cl)cc31)CC2 (stereo not drawn)
Result: 6.79

Query: Input O=C(CCN1CCC(c2ccccc2)C1)c1ccc2c(c1)OCCO2 (stereo not drawn)
Result: 28.8

Query: Input C[Si](Cl)(c1ccccc1)c1ccccc1
Result: 23.4

Query: Input CC=CC(=O)N(CC)c1ccccc1C (mixture of isomers)
Result: 7.51

Query: Input BrC(Br)C(Br)(Br)Br
Result: 16.1

Query: Input O=[N+]([O-])c1ccccc1CCl [2-Nitrobenzyl chloride]
Result: 36.1

Query: Input CC(=O)[C@H]1CC[C@H]2[C@@H]3C=CC4=CC(=O)CC[C@@]4(C)[C@@H]3CC[C@]12C
Result: 4.36

###

molecular target: human CYP2C9 (Homo sapiens); assay: biochemical; conditions: CYP2C9 AC50 (half-maximal activity concentration)
Sequence (P11712 whole entry): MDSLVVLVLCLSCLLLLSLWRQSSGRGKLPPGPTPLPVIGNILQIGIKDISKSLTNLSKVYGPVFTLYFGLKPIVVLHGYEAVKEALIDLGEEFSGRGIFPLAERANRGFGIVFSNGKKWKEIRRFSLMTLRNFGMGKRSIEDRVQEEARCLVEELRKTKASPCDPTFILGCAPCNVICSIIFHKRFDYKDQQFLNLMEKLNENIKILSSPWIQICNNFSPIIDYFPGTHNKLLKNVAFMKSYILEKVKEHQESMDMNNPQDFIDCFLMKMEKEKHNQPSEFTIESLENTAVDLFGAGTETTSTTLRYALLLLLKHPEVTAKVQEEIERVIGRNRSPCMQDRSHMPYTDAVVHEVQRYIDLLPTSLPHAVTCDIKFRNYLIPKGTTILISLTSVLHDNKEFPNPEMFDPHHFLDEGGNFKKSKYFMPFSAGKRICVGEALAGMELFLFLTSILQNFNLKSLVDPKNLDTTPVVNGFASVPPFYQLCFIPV
readout type: log10 AC50 (log10 of the value in µM)
Log10 applied to AC50; unit prior to transform: µM.

Query: Please report the recorded log10 AC50 for COC(=O)N(OC)c1ccccc1COc1ccn(-c2ccc(Cl)cc2)n1 [Pyraclostrobin] .
Result: 0.73

Query: Input [O-][n+]1ccccc1SSc1cccc[n+]1[O-] [Dipyrithione]
Result: 0.24

Query: Input CC(C)(C)c1ccc(O)c(O)c1 [4-tert-Butylcatechol]
Result: 1.87

Query: Input Oc1c(Cl)c(Cl)cc(Cl)c1Cl [2,3,5,6-Tetrachlorophenol]
Result: 1.36

Query: Input Oc1c(Br)c(Br)c(Br)c(Br)c1Br [Pentabromophenol]
Result: 1.48

Query: Input NC(=O)Cc1cccc(C(=O)c2ccccc2)c1N [Nepafenac]
Result: 1.40

Query: Input Clc1ccc(C(c2ccccc2Cl)C(Cl)Cl)cc1 (stereo not shown) [o,p'-DDD]
Result: 1.23

Query: Input O=C(O)c1cc(Cl)cc(Cl)c1 [3,5-Dichlorobenzoic acid]
Result: 1.77

Query: Input Cc1ccc(Cl)c(Nc2ccccc2C(=O)O)c1Cl [Meclofenamate sodium]
Result: 1.38

Query: Input Nc1cc(Cl)cc(Cl)c1 [3,5-Dichloroaniline]
Result: 1.87

Query: Input O=C(c1ccccc1)c1ccccc1 [Benzophenone]
Result: 1.45

Query: Input CC1CCC(C(C)C)C(OC(=O)c2ccccc2N)C1 (stereo not shown) [Menthyl anthranilate]
Result: 0.64

Query: Input CCC(C)c1ccc(O)cc1 (stereo not shown) [4-(Butan-2-yl)phenol]
Result: 1.52

Query: Input CN(C)C(=S)SC(=S)N(C)C [Tetramethylthiuram monosulfide]
Result: 1.39

Query: Input O=[N+]([O-])C(Br)(CO)CO [Bronopol]
Result: 0.66

Query: Input COC(=O)Nc1nc2ccc(C(=O)c3cccs3)cc2[nH]1 [Nocodazole]
Result: 0.65

Query: Input CC(=O)O[C@]1(C(C)=O)CC[C@H]2[C@@H]3C=C(C)C4=CC(=O)CC[C@]4(C)[C@H]3CC[C@@]21C [Megestrol acetate]
Result: 0.91

Query: Input ClC(c1ccccc1)(c1ccccc1)c1ccccc1 [Trityl chloride]
Result: 0.17

Query: Input C[C@]12CC[C@@H]3c4ccc(O)cc4CC[C@H]3[C@@H]1CC[C@@H]2OC(=O)CCC1CCCC1 [Estradiol cypionate]
Result: 1.21

Query: Input O=C(NC(=O)c1c(F)cccc1F)Nc1cc(Cl)c(OC(F)(F)C(F)C(F)(F)F)cc1Cl (stereo not shown) [Lufenuron]
Result: 1.05

Query: Input O=[N+]([O-])c1ccc(O)cc1C(F)(F)F [3-Trifluoromethyl-4-nitrophenol]
Result: 1.53

Query: Input O=C1OC(c2ccc(O)c(S(=O)(=O)O)c2)(c2ccc(O)c(S(=O)(=O)O)c2)c2c(Br)c(Br)c(Br)c(Br)c21 [Sulfobromophthalein]
Result: 1.64

Query: Input O=C(NC(=O)c1c(F)cccc1F)Nc1ccc(Oc2ccc(C(F)(F)F)cc2Cl)cc1F [Flufenoxuron]
Result: 1.25

Query: Input Clc1ccccc1-c1ccccc1Cl [2,2'-Dichlorobiphenyl]
Result: 1.59

Query: Input O=C1C(Cl)C(CCl)CN1c1cccc(C(F)(F)F)c1 (stereo not shown) [Flurochloridone]
Result: 0.89

Query: Input CC(C)[C@H]1CC[C@H](C(=O)N[C@H](Cc2ccccc2)C(=O)O)CC1 [Nateglinide]
Result: 1.15

Query: Input Clc1nc(Cl)c(Cl)c(Cl)c1Cl [Pentachloropyridine]
Result: 1.80

Query: Input CC(=O)Oc1ccc(C2(c3ccc(OC(C)=O)cc3)C(=O)Nc3ccccc32)cc1 [Oxyphenisatin acetate]
Result: 0.74

Query: Input CN1C(CSCC(F)(F)F)Nc2cc(Cl)c(S(N)(=O)=O)cc2S1(=O)=O (stereo not shown) [Polythiazide]
Result: 1.17

Query: Input Cc1c(Cl)cccc1Nc1ccccc1C(=O)O [Tolfenamic acid]
Result: 1.32

Query: Input CCOC(=O)c1nc(C(Cl)(Cl)Cl)n(-c2ccc(Cl)cc2Cl)n1 [Fenchlorazole-ethyl]
Result: 0.59

Query: Input CC(=O)[C@H]1CC[C@H]2[C@@H]3CCC4=CC(=O)CC[C@]4(C)[C@H]3CC[C@]12C [Progesterone]
Result: 1.42

Query: Input c1ccc(CSCc2ccccc2)cc1 [Benzyl sulfide]
Result: 1.47

Query: Input Brc1ccc(Oc2ccc(Br)cc2Br)c(Br)c1 [2,2'4,4'-Tetrabromodiphenyl ether]
Result: 1.10

Query: Input O=C(Cl)c1cccc(C(=O)Cl)c1 [1,3-Benzenedicarbonyl dichloride]
Result: 1.84

Query: Input CC(=O)N(c1onc(C)c1C)S(=O)(=O)c1ccc(N)cc1 [Sulfisoxazole acetal]
Result: 1.41

Query: Input Oc1ccc2[nH]cc(CCCCN3CC=C(c4ccccc4)CC3)c2c1 [Roxindole]
Result: 1.33
